Origin of measurements: patent US20120245137A1

system-name: UniProtKB Q00975
Sequence (Q00975 whole entry): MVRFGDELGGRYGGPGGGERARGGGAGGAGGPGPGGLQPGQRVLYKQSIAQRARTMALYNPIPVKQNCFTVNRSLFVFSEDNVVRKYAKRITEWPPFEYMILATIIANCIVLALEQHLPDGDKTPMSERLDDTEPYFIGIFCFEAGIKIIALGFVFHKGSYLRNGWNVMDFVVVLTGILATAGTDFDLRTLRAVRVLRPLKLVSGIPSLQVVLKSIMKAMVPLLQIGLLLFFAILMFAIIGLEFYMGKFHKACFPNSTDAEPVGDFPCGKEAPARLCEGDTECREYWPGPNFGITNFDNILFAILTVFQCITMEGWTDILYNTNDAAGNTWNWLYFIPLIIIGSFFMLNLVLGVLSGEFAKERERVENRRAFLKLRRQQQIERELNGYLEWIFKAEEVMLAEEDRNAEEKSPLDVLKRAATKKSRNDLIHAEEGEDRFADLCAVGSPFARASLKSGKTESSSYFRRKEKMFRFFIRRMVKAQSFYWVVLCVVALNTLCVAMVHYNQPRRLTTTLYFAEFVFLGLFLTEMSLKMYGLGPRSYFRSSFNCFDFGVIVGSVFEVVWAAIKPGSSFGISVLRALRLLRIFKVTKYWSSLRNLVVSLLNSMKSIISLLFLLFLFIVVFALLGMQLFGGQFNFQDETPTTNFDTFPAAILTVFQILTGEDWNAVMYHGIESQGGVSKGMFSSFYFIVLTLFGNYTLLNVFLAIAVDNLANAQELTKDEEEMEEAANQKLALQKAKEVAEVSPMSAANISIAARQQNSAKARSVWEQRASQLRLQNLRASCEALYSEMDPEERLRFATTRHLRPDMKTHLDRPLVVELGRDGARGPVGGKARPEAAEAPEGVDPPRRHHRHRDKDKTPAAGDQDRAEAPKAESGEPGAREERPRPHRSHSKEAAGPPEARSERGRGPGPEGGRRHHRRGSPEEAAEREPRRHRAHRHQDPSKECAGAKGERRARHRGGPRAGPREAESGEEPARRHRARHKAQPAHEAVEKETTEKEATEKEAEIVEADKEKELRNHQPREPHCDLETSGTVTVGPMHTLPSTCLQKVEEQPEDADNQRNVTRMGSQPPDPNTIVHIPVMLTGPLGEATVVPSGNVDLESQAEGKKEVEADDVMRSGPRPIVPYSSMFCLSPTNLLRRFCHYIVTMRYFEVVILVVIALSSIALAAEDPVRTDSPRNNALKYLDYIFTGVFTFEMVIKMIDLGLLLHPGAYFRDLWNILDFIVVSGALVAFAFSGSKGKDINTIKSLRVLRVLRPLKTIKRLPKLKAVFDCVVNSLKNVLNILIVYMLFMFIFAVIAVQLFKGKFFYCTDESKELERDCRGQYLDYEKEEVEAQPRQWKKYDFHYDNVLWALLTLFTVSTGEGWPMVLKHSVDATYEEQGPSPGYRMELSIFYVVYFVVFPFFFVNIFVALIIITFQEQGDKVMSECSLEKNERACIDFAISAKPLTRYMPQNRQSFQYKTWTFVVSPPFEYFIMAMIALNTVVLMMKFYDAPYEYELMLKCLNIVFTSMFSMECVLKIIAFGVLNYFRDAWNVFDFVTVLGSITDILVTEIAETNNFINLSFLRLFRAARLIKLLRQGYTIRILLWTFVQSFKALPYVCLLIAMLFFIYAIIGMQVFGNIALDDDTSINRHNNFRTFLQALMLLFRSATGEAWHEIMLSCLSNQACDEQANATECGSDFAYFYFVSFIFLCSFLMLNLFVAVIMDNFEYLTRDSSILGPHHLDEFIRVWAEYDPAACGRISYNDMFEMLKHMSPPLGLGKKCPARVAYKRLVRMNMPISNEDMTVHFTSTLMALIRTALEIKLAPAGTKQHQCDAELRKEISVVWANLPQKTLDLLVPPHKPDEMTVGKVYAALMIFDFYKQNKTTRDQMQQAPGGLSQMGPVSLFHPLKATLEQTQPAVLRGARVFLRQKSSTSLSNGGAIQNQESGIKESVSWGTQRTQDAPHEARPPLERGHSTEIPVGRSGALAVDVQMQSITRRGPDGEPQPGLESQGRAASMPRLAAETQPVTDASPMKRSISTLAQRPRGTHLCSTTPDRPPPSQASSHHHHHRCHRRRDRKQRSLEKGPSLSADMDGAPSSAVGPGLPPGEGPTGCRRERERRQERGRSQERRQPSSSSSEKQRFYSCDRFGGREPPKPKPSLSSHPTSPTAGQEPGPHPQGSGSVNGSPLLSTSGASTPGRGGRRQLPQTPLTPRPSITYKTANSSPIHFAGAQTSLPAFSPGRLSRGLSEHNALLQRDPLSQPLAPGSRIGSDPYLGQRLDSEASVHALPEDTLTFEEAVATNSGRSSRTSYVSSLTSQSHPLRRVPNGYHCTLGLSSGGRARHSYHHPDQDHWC
Sequence (P54289 25-1103 partner): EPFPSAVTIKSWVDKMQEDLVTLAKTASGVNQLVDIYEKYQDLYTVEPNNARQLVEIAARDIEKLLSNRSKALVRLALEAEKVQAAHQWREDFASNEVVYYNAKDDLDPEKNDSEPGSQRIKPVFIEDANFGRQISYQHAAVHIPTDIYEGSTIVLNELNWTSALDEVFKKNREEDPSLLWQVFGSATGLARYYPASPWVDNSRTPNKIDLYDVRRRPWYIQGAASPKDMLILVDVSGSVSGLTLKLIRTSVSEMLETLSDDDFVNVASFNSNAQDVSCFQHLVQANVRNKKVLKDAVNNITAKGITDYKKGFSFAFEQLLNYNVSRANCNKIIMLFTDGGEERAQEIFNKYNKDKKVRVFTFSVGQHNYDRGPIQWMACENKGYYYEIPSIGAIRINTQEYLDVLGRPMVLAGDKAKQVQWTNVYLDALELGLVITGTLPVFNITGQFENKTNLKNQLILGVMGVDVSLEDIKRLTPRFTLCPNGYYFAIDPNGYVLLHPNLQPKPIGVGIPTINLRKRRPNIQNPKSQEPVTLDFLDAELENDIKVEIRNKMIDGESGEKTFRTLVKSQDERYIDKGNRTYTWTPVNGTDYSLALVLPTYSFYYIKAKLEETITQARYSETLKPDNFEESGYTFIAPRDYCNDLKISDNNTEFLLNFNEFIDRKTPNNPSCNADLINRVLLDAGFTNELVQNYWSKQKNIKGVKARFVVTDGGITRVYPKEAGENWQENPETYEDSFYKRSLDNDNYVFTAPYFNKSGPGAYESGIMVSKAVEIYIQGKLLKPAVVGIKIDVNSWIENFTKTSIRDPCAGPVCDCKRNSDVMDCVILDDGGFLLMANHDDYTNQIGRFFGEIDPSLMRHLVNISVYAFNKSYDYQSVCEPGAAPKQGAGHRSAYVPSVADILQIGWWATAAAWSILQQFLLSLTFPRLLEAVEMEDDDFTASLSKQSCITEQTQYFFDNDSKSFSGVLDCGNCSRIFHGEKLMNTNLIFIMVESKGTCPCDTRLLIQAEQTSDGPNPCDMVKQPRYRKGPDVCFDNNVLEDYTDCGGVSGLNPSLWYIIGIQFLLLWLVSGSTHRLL
Sequence (P54284 whole entry partner): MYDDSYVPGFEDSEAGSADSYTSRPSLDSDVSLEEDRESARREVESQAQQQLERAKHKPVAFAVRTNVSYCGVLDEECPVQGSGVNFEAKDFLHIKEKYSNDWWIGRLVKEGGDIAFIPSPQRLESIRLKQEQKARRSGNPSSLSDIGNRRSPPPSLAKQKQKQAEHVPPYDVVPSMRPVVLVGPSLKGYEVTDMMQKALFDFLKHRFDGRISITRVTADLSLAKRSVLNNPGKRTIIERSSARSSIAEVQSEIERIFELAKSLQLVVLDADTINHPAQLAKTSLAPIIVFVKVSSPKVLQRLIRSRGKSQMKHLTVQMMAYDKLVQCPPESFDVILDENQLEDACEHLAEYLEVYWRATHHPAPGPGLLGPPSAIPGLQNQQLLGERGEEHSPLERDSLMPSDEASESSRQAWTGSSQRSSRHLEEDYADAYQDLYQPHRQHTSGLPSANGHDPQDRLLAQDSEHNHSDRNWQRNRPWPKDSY
assay-details: Fluorescent assay for CaV2.2 channels using potassium depolarization (VIPR/FLIPR)
Format: cell-based
condition-context: FLIPR data; inactivated state; read-out: CAv2.2 IC50 Inact.
// values below are reported IC50

[
  {
    "structure-string": "CC(C)([C@H]1C[C@@H](NC(=O)c2ncc(C(F)(F)F)cc2S(C)(=O)=O)C1)S(=O)(=O)c1cccc(OC(F)(F)F)c1",
    "system-name": "UniProtKB Q00975",
    "reading-unit": "nM",
    "IC50": 900
  },
  {
    "structure-string": "CC(C)S(=O)(=O)c1cc(C(F)(F)F)cnc1C(=O)N[C@H]1C[C@H](CC(C)(C)S(=O)(=O)c2cccc(C(F)(F)F)c2)C1",
    "system-name": "UniProtKB Q00975",
    "reading-unit": "nM",
    "IC50": 220
  },
  {
    "structure-string": "CC(C)([C@H]1C[C@@H](NC(=O)c2ccc(F)c(Cl)c2)C1)S(=O)(=O)c1cc(F)cc(C(F)(F)F)c1",
    "system-name": "UniProtKB Q00975",
    "reading-unit": "nM",
    "IC50": 340
  }
]
